# Tested on: DU-145
# Measurement Protocol: NCI human cancer cell line screen (COMPARE screening), Prostate DU-145
# Type: cell-based
# Condition Info: Homo sapiens; DU-145; concentration causing 50% growth inhibition; read-out: Cytotoxicity (G150 in μM) Prostate DU-145
Parameter: IC50 (µM)
Respond with the bare value in µM.

Answered examples (3):
O=C(O)CCCn1c2c(c3ccccc3c1=O)C(=O)c1ccccc1-2 : 48
COc1cc2c3c(n(CCCCO)c(=O)c2cc1OC)-c1cc2c(cc1C3=O)OCO2 [Compound 19a] : 0.36
CCN1Cc2cc(OC)c(OC)cc2[C@@H]2[C@H]1c1cc3c(cc1[C@@H]2O)OCO3 : 41

Kindly note the recorded IC50 for CCCCn1c2c(c3ccccc3c1=O)C(=O)c1cc3c(cc1-2)OCO3 [Compound 13b] , which is 38

Kindly note the recorded IC50 for COc1cc2c3c(n(Cc4ccccc4)c(=O)c2cc1OC)-c1cc2c(cc1C3=O)OCO2 [Compound 13e] , which is 4

Kindly note the recorded IC50 for CCCCn1c2c(c3cc(OC)c(OC)cc3c1=O)C(=O)c1cc3c(cc1-2)OCO3 [Compound 13d] , which is 16

Kindly note the recorded IC50 for `CC[n+]1cc2cc(OC)c(OC)cc2c2c1-c1cc3c(cc1C2)OCO3` , which is 58

Kindly note the recorded IC50 for COc1ccc(Cn2c3c(c4cc(OC)c(OC)cc4c2=O)C(=O)c2cc4c(cc2-3)OCO4)cc1 [Compound 13f] , which is 76

Kindly note the recorded IC50 for CCn1c2c(c3cc(OC)c(OC)cc3c1=O)C(=O)c1cc3c(cc1-2)OCO3 [Compound 13k] , which is 2.3
